Source listed as PubChem BioAssay.

Assay: binders from COS7 lysate, DM2A8 probe, primary screen, torsin A project, cell lysate, small-molecule microarray, fluorescence 635/667 (AID 1065)
Conditions: higher = more signal, COS7 lysate expressing mutant human TOR1A
# label = 1 if composite z-score >= 0.09 else 0

INSERT INTO measurements (compound, cat) VALUES
  ('O=S(=O)(NCCCO)c1ccc(Br)cc1', 1),
  ('Cc1cc(C)c(C(O)C2C=CC3C(=O)NC(=O)C3N2Nc2ccccn2)c(C)c1 (stereo not drawn)', 1),
  ('COc1ccc([Si](C)(C)[C@@H]2[C@@H](CCO)O[C@]3(C(=O)N(Cc4ccccc4)c4ccc(N(C=O)c5ccccc5)cc43)[C@H]2C)cc1', 1),
  ('COc1cc(NN2C(C(O)c3ccccc3)C=CC3C(=O)N(c4ccccc4)C(=O)C32)cc(OC)c1OC (stereo not drawn)', 1),
  ('O=C1OCC=C[C@H]2OC34C=CCN(c5ccc(Cl)cc5)C(=O)[C@H]3N(CCCO)C(=O)[C@@H]4[C@@H]12 (stereo partly drawn)', 0),
  ('O=C1OCCC/C=C\[C@H]2OC34C=CCN(Cn5nnc6ccccc65)C(=O)[C@H]3N(CCCO)C(=O)[C@@H]4C12 (stereo partly drawn)', 0),
  ('O=C1O[C@H](c2ccccc2)[C@H](c2ccccc2)N2[C@H]1[C@@H](C(=O)Nc1nc3ccccc3s1)[C@]1(C(=O)Nc3ccc(C#CC4=CCCCC4)cc31)[C@H]2c1ccc(OCCO)cc1', 1);

----------
Target: Torsin-1A (Homo sapiens) (UniProt O14656)
Sequence (O14656 whole entry, looked up): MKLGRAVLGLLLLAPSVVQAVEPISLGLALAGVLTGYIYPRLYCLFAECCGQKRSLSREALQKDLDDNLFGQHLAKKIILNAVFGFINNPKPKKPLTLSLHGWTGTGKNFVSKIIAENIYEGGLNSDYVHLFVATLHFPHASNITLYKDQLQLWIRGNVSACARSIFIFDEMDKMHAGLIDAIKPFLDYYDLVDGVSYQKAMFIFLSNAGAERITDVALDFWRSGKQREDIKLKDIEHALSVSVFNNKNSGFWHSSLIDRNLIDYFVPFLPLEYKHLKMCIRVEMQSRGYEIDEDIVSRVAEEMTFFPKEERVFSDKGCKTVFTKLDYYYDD
Assay: torsin A mutant lysate binding on microarrays – cell lysate, small-molecule microarray, COS7 lysate, 635/667 nm fluorescence, primary screen (AID 1150);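 also: score pools 667 nm emission and signal to noise measuring lysate protein binding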
Conditions: COS7 hTOR1A mutant lysate, 635 nm fluorescence, higher = more signal
metric_name: composite z-score

INSERT INTO results (compound, result_value) VALUES
  ('[N-]=[N+]=NCc1ccccc1C[C@]1(C(=O)NCCN2CCOCC2)N=C(c2ccc(OCCCO)cc2)O[C@H]1c1ccccc1CN=[N+]=[N-]', 0.938),
  ('Cc1ccc(S[C@]2(C(=O)NCc3ccccc3)CC(=O)N(Cc3cc(C(F)(F)F)cc(C(F)(F)F)c3)[C@@H]2c2ccc(CO)cc2)cc1', -0.755),
  ('O=C(NCC(F)(F)F)[C@@H]1c2ccccc2C(=O)N(Cc2ccccc2)[C@H]1c1ccc(CO)cc1', 0.0036),
  ('C=C(C)[C@@H]1CC=C(C(O)C2C=CC3C(=O)N(Cc4ccccc4)C(=O)C3N2n2cnnc2)CC1 (some centres undefined)', -0.388);

----------
Tested on: Wnt5a (protein binding on small-molecule microarray)
Experiment: small molecules binding Wnt5a protein – biophysical, small-molecule microarray, 635/667 nm fluorescence, primary screen (AID 1142);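 also: fluorescence read at 667 nm with signal to noise per printed feature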
Conditions: 635 nm fluorescence, higher = more signal
metric_name: composite z-score

INSERT INTO measurements (compound, metric_name, result_value) VALUES
  ('[N-]=[N+]=NCc1ccccc1C[C@]1(C(N)=O)N=C(c2ccc(OCCCO)cc2)O[C@H]1c1ccccc1N=[N+]=[N-]', 'composite z-score', 0.451),
  ('CN(C)CCCCCCNC(=O)[C@@H]1C[C@@H]2C(=O)NCC(=O)N2[C@@H]1c1cccc(OCCO)c1', 'composite z-score', 1.21),
  ('COc1ccc([Si](C)(C)[C@@H]2[C@@H](CCn3cc([C@H](O)c4ccccc4)nn3)O[C@]3(C(=O)N(C)c4ccccc43)[C@H]2C)cc1', 'composite z-score', 0.0302),
  ('O=C1C2C=CC(C(O)c3ccc(B(O)O)cc3)N(Nc3ccc([N+](=O)[O-])cc3)C2C(=O)N1c1ccccc1 (centres undefined)', 'composite z-score', 0.263),
  ('C=C(COC)C(=O)CC[C@H](OC(=O)c1cccnc1)c1ccccc1OCCO', 'composite z-score', 0.112),
  ('O=C(CS)NCCCCCNC(=O)[C@H]1C[C@H]2C(=O)N[C@@H](Cc3ccccc3)C(=O)N2[C@H]1c1cccc(OCCO)c1', 'composite z-score', 0.306),
  ('COC(=O)c1c2oc(c1C(=O)OC)C(=O)N[C@H](Cc1ccccc1)Cn1nncc1C1(CCCCC1)NC(=O)N[C@H](CO)CC2', 'composite z-score', 0.159),
  ('O=C1c2ccccc2[C@](Cc2ccccc2I)(C(=O)O)[C@H](c2ccc(CO)cc2)N1Cc1ccccc1C(F)(F)F', 'composite z-score', -0.186),
  ('[N-]=[N+]=NCc1ccccc1[C@H]1OC(c2ccc(OCCCO)cc2)=N[C@@]1(Cc1ccccc1)C(=O)NCC(O)CO (some centres undefined)', 'composite z-score', 0.11),
  ('C=CCOC(=O)[C@@H]1[C@H]2C(=O)O[C@H](c3ccccc3)[C@H](c3ccccc3)N2[C@H](c2ccc(OCCOC(=O)[C@H]3C[C@H]4C(=O)N[C@@H](CC(C)C)C(=O)N4[C@H]3c3cccc(OCCO)c3)cc2)[C@@]12C(=O)Nc1ccc(I)cc12', 'composite z-score', 0.289),
  ('[N-]=[N+]=NCc1ccccc1C[C@]1(C(=O)NCCN2CCOCC2)N=C(c2ccc(OCCCO)cc2)O[C@H]1c1ccccc1CN=[N+]=[N-]', 'composite z-score', 0.888),
  ('C=CC[C@@]1(C(N)=O)N=C(c2ccc(OCCCO)cc2)O[C@@H]1c1ccccc1N=[N+]=[N-]', 'composite z-score', 0.373),
  ('COCCn1c(C(=O)N2CCCC2)cc2c1C[C@H]1CN(C(=O)c3ccccc3)[C@@](Cc3ccc(OC)cc3)(C(=O)OC)[C@@H]21', 'composite z-score', 0.644),
  ('CC(C)C(CO)N1C(=O)[C@@H]2[C@H]3C(=O)OCC=C[C@H]3OC23C=CCN(c2ccc4ccccc4c2)C(=O)[C@@H]13 (some centres undefined)', 'composite z-score', -0.0522);

----------
Target: Fibroblast growth factor 10 (Homo sapiens)
Experiment: compounds binding fibroblast growth factor 10 – biochemical, small-molecule microarray, 635 nm fluorescence, primary screen (AID 1102)
Settings: FGF10 binding, fluorescence 635 nm, higher = more signal
The entries below are paired with their reported composite z-score.
metric_name: composite z-score

INSERT INTO assay_data (compound, result_value) VALUES
  ('C=CCC(OC(C)=O)[C@@H]1[C@@H](N(Cc2ccc(-c3ccccc3)cc2)C(=O)c2ccc(C)cc2)c2cc(OCCCO)ccc2N1C(=O)c1ccc2ccccc2n1 (some centres undefined)', -0.0241),
  ('C=C(/C(=C/C[C@@H](OC(C)=O)c1ccc(CO)o1)c1cnc2ccccc2c1)C(C)C', 1.66),
  ('[N-]=[N+]=NCc1ccccc1C[C@]1(C(=O)NCC(O)CO)COC(c2ccc(OCCCO)cc2)=N1 (some centres undefined)', -0.0207),
  ('COc1cc2c(cc1O)C(c1ccc(CN3CCCC3)cc1)N(Cc1sc3ccccc3c1Cl)CC2 (centres undefined)', 0.514),
  ('COC(=O)[C@@]1(Cc2ccc(F)cc2)[C@H]2c3cc(C(=O)N4CCCC4)n(CCc4ccc(OC)c(Br)c4)c3C[C@H]2CN1C(=O)c1ccccc1', 0.68),
  ('O=C1c2ccccc2[C@](Cc2ccccc2I)(C(=O)O)[C@H](c2ccc(CO)cc2)N1Cc1ccccc1C(F)(F)F', -0.414),
  ('COc1cc(CO)cc(I)c1O[C@H]1C=C(C(=O)NCCO)C[C@@H](N(CCc2cccc(F)c2)C(=O)CCC2CCCC2)[C@@H]1O', 1.54),
  ('CCCC[C@H]1OB(O)C[C@H]2C1=C(COc1ccccc1)C[C@H]1C(=O)N(Cc3ccccc3)C(=O)[C@H]12', 0.509),
  ('CCCNC(=O)[C@@]1(C)c2ccccc2C(=O)N(Cc2cc(C(F)(F)F)cc(C(F)(F)F)c2)[C@H]1c1ccc(CO)cc1', -0.0617),
  ('Cc1cc(C)c(C(O)C2C=CC3C(=O)NC(=O)C3N2Nc2ccccn2)c(C)c1 (centres undefined)', 0.158),
  ('COC(=O)[C@@]1(Cc2ccc(F)cc2)[C@H]2c3cc(C(=O)N(C)C)n(CCc4c[nH]c5ccc(OC)cc45)c3C[C@H]2CN1C(=O)c1ccccc1', -0.162),
  ('CC(c1ccccc1)C(O)C1C=CC2C(=O)N(Cc3ccccc3)C(=O)C2N1n1cnnc1 (centres undefined)', 0.691),
  ('COCCCNC(=O)[C@@]1(Cc2ccccc2I)c2ccccc2C(=O)N(Cc2ccccc2)[C@H]1c1ccc(CO)cc1', -1.25),
  ('C=CC[C@@]1(C(N)=O)N=C(c2ccc(OCCCO)cc2)O[C@@H]1c1ccccc1N=[N+]=[N-]', 0.63),
  ('CC(C)(C)OC(=O)CC[C@@]1(C(=O)NCC(O)CO)N=C(c2ccc(OCCCO)cc2)O[C@@H]1c1ccccc1 (some centres undefined)', 0.989),
  ('O=C1O[C@@H](c2ccccc2)[C@@H](c2ccccc2)N2[C@@H](c3ccccc3OCCO)[C@]3(C(=O)Nc4ccc(C#CC5(O)CCCCCC5)cc43)[C@@H](C(=O)NC[C@H](O)c3ccccc3)[C@H]12', 1.3),
  ('Cc1ccc(N2C(=O)c3ccccc3[C@@H](C(=O)NCC(C)C)[C@@H]2c2ccc(CO)cc2)nc1', -0.617),
  ('O=C(NCc1ccccc1)[C@@H]1c2ccccc2C(=O)N(Cc2cc(F)cc(C(F)(F)F)c2)[C@H]1c1ccc(CO)cc1', 0.29),
  ('COCCOC(=O)N1C(=O)[C@@]2(c3cc(C#CC4(O)CCCCCC4)ccc31)[C@H](c1ccc(O)cc1)N1[C@H](c3ccccc3)[C@H](c3ccccc3)OC(=O)[C@H]1[C@@H]2C(=O)N1CCc2cc(OC)c(OC)cc2C1', -0.681),
  ('O=C1C2C=CC(C(O)c3ccccn3)N(Nc3ccccc3F)C2C(=O)N1c1ccccc1 (centres undefined)', 0.0698),
  ('O=C(N1CCCCC1)[C@]1(CCS(=O)(=O)c2ccccc2)N=C(c2ccc(OCCCO)cc2)O[C@@H]1c1ccccc1', 0.997),
  ('CN(C)CCCC[C@@H]1NC(=O)[C@H]2C[C@@H](C(=O)NCCCCCNC(=O)CS)[C@@H](c3ccc(O)cc3)N2C1=O', -1.2),
  ('CC(C)NC(=O)[C@@H]1c2ccccc2C(=O)N(C2CCCCC2)[C@H]1c1ccc(CO)cc1', 0.902),
  ('Cc1ccc(S[C@]2(C(=O)NCC(F)(F)F)CC(=O)N(C3Cc4ccccc4C3)[C@@H]2c2ccc(CO)cc2I)cc1', -1.02),
  ('COCCOC(=O)N1C(=O)[C@@]2(c3cc(C#Cc4ccc(OC)cc4)ccc31)[C@H](c1ccc(OCCO)cc1)N1[C@H](c3ccccc3)[C@H](c3ccccc3)OC(=O)[C@H]1[C@@H]2C(=O)N1CCc2cc(OC)c(OC)cc2C1', 0.812),
  ('CCOC(=O)C1=CC[C@@H](c2cccc(Cl)c2)N(S(=O)(=O)c2ccc(C)cc2)[C@H]1c1ccc(C#N)cc1', 0.841),
  ('O=C1OCC=C[C@H]2OC34C=CCN(c5ccc6ccccc6c5)C(=O)[C@H]3N(CCO)C(=O)[C@@H]4[C@@H]12 (some centres undefined)', -0.455),
  ('C[N+](C)(C)CCCC[C@@H]1NC(=O)[C@H]2C[C@@H](C(=O)O)[C@@H](c3cccc(OCCO)c3)N2C1=O', 1.4),
  ('COCCCNC(=O)[C@]1(Cc2ccccc2N=[N+]=[N-])N=C(c2ccc(OCCCO)cc2)O[C@@H]1c1ccccc1CN=[N+]=[N-]', 1.26);
